Recorded TGI by entry
- System: SF-539 CNS
- Experiment: NCI tumour cell line growth inhibition, 48 h
Observation type: TGI

>>> measured("O=C(O)CN(CCNC(=O)OCC1c2ccccc2-c2ccccc21)CCNC(=O)OCC1c2ccccc2-c2ccccc21")
"46.7 µM"
>>> measured("CC1=C(C(=O)Nc2ccc3[nH]ncc3c2)C(c2ccc3ccccc3c2)CC(=O)N1 (stereo unspecified)")
"> 25 µM"
>>> measured("O=C1C(Cl)=C(N2CCN(C3=C(Cl)C(=O)c4ccccc4C3=O)CC2)C(=O)c2ccccc21")
"3.15 µM"
>>> measured("N#CC(C(=N/O)/C(=N/O)C(C#N)c1ccc(Cl)cc1)c1ccc(Cl)cc1 (stereo unspecified)")
"> 100 µM"
>>> measured("COC(=O)c1cc2c3ccccc3[nH]c2c2ncccc12")
"> 100 µM"
>>> measured("O=C1/C(=C/c2ccc(Br)cc2)C=C(c2ccccc2)N1CCc1ccccc1")
"5.57 µM"
>>> measured("O=C(c1ccco1)c1nc2ccc(C(F)(F)F)cc2[n+]([O-])c1C(F)(F)F")
"> 100 µM"
>>> measured("O=C(Nc1ccc(N2CCNCC2)cc1)c1[nH]ncc1Nc1cc(Oc2ccccc2)ncn1")
"3.35 µM"
>>> measured("COC(=O)C1=C(C(=O)OC)C2C=CC1C1C(Cl)=C(Cl)C21 (stereo unspecified)")
"> 100 µM"
>>> measured("CN(C)CCCOC(=O)C(c1ccccc1)C1(O)CCSCC1 (stereo unspecified)")
"> 100 µM"
>>> measured("COc1ccc2c(c1)c(-c1nc(-c3cn(C)c4ncccc34)cs1)cn2CCCN1CCCCC1")
"3.22 µM"
>>> measured("COc1ccc(N2C(=O)C3c4[nH]c5ccc(OCc6ccccc6)cc5c4C4CCC(C(C)(C)C)CC4C3C2=O)cc1 (stereo unspecified)")
"> 100 µM"
>>> measured("CC12CC[C@@H](C(C)(C)O)C1[C@@H](O)CC1(C)C2CCC2[C@@]3(C)CC[C@H](O)C(C)(C)C3C(O)C[C@]21C (stereo partly specified)")
"35.3 µM"
>>> measured("COc1ccc(OC)c(NC(=O)C(=O)C(C(C)=O)c2nc3ccc(Cl)cc3[nH]c2=O)c1 (stereo unspecified)")
"> 50 µM"
>>> measured("CCCCC/C(C=C(C#N)C#N)=C/c1ccccc1")
"17.7 µM"
>>> measured("N.N.N.O=[N+]([O-])[O-].O=[N+]([O-])[O-].O=[N+]([O-])[O-].O=[N+]([O-])[O-].[Co+3]")
"> 100 µM"
>>> measured("CSc1ccc(C2=NN(C(C)=O)C(c3cc(C)cs3)C2)cc1 (stereo unspecified)")
"> 100 µM"
>>> measured("CCCc1cc(=O)c2c(C)c3[nH]c4ccc(Cl)cc4c3c(C)c2[nH]1")
"3.56 µM"
>>> measured("CSc1cc(N=Nc2nc3ccccc3s2)c2ccccc2c1O")
"3.87 µM"
>>> measured("OC1C2[C@@H](O)CCCN2C[C@@H](O)[C@H]1O (stereo partly specified)")
"> 100 µM"
>>> measured("COc1ccc(-c2cc(-c3ccco3)c(C#N)c(=S)n2C2OC(COC(C)=O)C(OC(C)=O)C(OC(C)=O)C2OC(C)=O)cc1 (stereo unspecified)")
"4.56 µM"
>>> measured("CC(C)Sc1nc(C#N)cc2c1CCCC2")
"> 100 µM"
>>> measured("O=c1nc(N2CCN(c3ccccc3)CC2)ccn1C1OC(CO)C(O)C1O (stereo unspecified)")
"> 100 µM"
>>> measured("Cc1cc(N(CCC#N)CCC#N)ccc1/C=N/NC(=O)c1cc(Cl)ccc1O")
"> 100 µM"
>>> measured("O=C(CI)NC1Oc2ccccc2-c2oc(=O)c(-c3ccccc3)cc21 (stereo unspecified)")
"3.13 µM"
>>> measured("CCCCN(CCCC)C(=O)C(=O)C(C#N)c1ccc(C)cc1 (stereo unspecified)")
"> 100 µM"
>>> measured("Cc1nnc2n1N=C(c1cc(F)c(Cl)cc1Cl)/C(=C/c1ccc(Cl)cc1)S2")
"92.3 µM"
>>> measured("Cn1cc2ccccc2c1-c1nc(N)nc(F)n1")
"> 100 µM"
>>> measured("O=C1OCc2c1cc1ccc(O)c(OC3OC(CO)C(O)C(O)C3O)c1c2-c1ccc2c(c1)OCO2 (stereo unspecified)")
"> 100 µM"
>>> measured("Cc1nc2c(nc1Cl)nc(Oc1ccc(Cl)cc1)c1ccccc12")
"> 100 µM"
>>> measured("C[C@]12CC[C@@H]3c4ccc(O)cc4CC[C@H]3[C@@H]1C/C(=C\\c1ccncc1)C2=O")
"28.9 µM"
>>> measured("CCOc1cc(NC(C)=O)ccc1C(=O)NNC(=O)c1ccccc1OC(C)=O")
"> 80.7 µM"
>>> measured("Brc1ccc(CCNCCN2CCCCC2)cc1")
"23.3 µM"
>>> measured("Cc1ccc(-c2c3c([nH]c(=O)c2C#N)-c2cc(F)ccc2OC3)cc1")
"> 100 µM"
>>> measured("Cc1ccc(S(=O)(=O)C(CC(=O)N2CCCC2)C(=O)c2ccccc2)cc1 (stereo unspecified)")
"> 100 µM"
>>> measured("COc1cc2c(cc1OC)C1=Cc3cc(OC)c(OC)cc3C(C)N1C=C2 (stereo unspecified)")
"> 100 µM"
